The values you see were collected from paper PMC4118869.

Target: phage displayed HA gene fragment D363-G478 (Influenza A virus A/California/07/2009 …, UniProt C3W5X2)
Test: ELISA
Conditions: both partners purified
readout: binding result

>>> assay_value("R2b-D8 (VHH, source: E. coli WK6 periplasm, purified (Talon IMAC, Superdex 75 SEC)) VHH: QVQLVESGGGLVQPGGSLRLSCAASGFTFSWYDVGWYRRAPGKERELVADIASTRGTTNYADSVKGRFTISRDNAKNSVYLQMNSLKPEDTAVYYCNTRRDWRDYWGQGIQVTVSS")
"binds"
>>> assay_value("R1a-G6 (VHH, source: E. coli WK6 periplasm, purified (Talon IMAC, Superdex 75 SEC)) VHH: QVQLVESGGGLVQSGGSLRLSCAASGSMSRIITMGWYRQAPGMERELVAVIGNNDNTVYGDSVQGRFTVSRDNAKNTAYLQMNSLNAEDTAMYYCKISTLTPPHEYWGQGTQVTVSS")
"no binding"
>>> assay_value("R2b-E8 (VHH, source: E. coli WK6 periplasm, purified (Talon IMAC, Superdex 75 SEC)) VHH: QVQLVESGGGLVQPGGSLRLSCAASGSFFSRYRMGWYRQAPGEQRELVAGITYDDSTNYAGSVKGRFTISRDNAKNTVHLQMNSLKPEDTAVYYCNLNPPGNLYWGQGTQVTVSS")
"no binding"
>>> assay_value("R1a-E5 (VHH, source: E. coli WK6 periplasm, purified (Talon IMAC, Superdex 75 SEC)) VHH: QLQLVESGGGLVQPGGSLRLSCTASGFSLDNYAIGWFRRAPGEEREGVSFITSTSAVTKYADSVKGRFTISRDNAKNTVYLQMTSLKPEDTAVYYCAGTRWVPTMKADEYNYWGQGTQVTVSS")
"no binding"
